This section presents compounds with their documented Efficacy (1%) values.
Test system: VEGF-induced retinal vascular permeability
Assay: VEGF-induced retinal vascular permeability in the rat, intravitreal delivery
Format: in vivo
Settings: inhibition of VEGF-induced RVP vs vehicle-injected controls, single ivt injection of 1% suspension; *P<0.05
Could you give me the number in %*? Just the number is fine.

Worked examples, 2 compounds total:
Cc1cccc(NC(=O)Nc2ccc(-c3csc4c(-c5ccncc5)cnc(N)c34)cc2)c1 [VI] : 70.6
Cc1cccc(NC(=O)Nc2ccc(-c3cncc4[nH]nc(N)c34)cc2)c1 [Compound I] : 88.9

Give Efficacy (1%) for the following compound: Cc1cccc(NC(=O)Nc2ccc(-c3csc4c(-c5cccnc5)cnc(N)c34)cc2)c1 [VII]
73.5

Please look at this compound and report its Efficacy (1%): Cc1cccc(NC(=O)Nc2ccc(-c3csc4ncnc(N)c34)cc2)c1 [Compound II]
85.7

Cited source: patent US20120004245A1
